SIGNAL: recorded values
- SYSTEM: alkaline phosphatase (Bos taurus)
- TEST_PROTOCOL: Chemiluminescent signal and signal:background with enhancer polymers (Example XVII)
- Format: biochemical
- ASSAY_CONDITIONS: polymer NONE; 5 min; enzyme 2.83×10^-13 M
When you answer, write just the number.

Incoming: Give me measured SIGNAL, please, for this compound: COC1(c2cccc(OP(=O)(O)O)c2)OOC12C1CC3CC2CC(O)(C3)C1 (single isomer, unassigned) [A-OH-AMPPD]
Outgoing: 2863.6

Incoming: Give me measured SIGNAL, please, for this compound: COC1(c2cccc(OP(=O)(O)O)c2)OOC12C1CC3CC2CC(O)(C3)C1 (single isomer, unassigned) [B-OH-AMPPD]
Outgoing: 3314.8

Incoming: Give me measured SIGNAL, please, for this compound: COC1(c2cccc(OP(=O)(O)O)c2)OOC12C1CC3CC2CC(Cl)(C3)C1 (stereo not shown)
Outgoing: 4083.6

Incoming: Give me measured SIGNAL, please, for this compound: COC1(c2cccc(OP(=O)(O)O)c2)OOC12C1CC3CC(C1)CC2C3 (stereo not shown) [AMPPD, reference compound]
Outgoing: 3706.0

* * *

- SYSTEM: alkaline phosphatase (Bos taurus, UniProt P19111)
- Sequence (P19111 20-506 limits assumed): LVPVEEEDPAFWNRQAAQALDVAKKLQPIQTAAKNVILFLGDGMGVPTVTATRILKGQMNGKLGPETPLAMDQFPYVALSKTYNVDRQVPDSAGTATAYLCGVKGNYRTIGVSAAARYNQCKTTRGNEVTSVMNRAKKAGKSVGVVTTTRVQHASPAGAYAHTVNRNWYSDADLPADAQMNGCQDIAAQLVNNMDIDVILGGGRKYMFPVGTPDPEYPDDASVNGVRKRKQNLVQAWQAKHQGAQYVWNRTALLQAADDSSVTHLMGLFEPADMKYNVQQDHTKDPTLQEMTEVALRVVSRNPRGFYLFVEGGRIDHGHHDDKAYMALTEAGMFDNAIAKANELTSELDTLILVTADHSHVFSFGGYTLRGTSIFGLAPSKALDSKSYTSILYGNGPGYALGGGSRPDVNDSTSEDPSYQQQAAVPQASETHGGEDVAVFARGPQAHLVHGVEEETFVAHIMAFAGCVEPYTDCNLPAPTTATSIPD
- TEST_PROTOCOL: Chemiluminescent signal and signal:background with enhancer polymers (Example XVII)
- Format: biochemical
- ASSAY_CONDITIONS: polymer TMQ; 5 min
REPORTED_ENDPOINT: SIGNAL
When you answer, write just the number.

Answered cases to consult:
{"columns": ["COMPOUND", "RESULT"],
 "data": [
  ["COC1(c2cccc(OP(=O)(O)O)c2)OOC12C1CC3CC2CC(Cl)(C3)C1 (stereo not shown)", 9941.0],
  ["COC1(c2cccc(OP(=O)(O)O)c2)OOC12C1CC3CC(C1)CC2C3 (stereo not shown) [AMPPD, reference compound]", 10525.8],
  ["COC1(c2cccc(OP(=O)(O)O)c2)OOC12C1CC3CC2CC(O)(C3)C1 (single isomer, unassigned) [B-OH-AMPPD]", 6258.9]
]}

Now look at this entry.
Incoming: Give me measured SIGNAL, please, for this compound: COC1(c2cccc(OP(=O)(O)O)c2)OOC12C1CC3CC2CC(O)(C3)C1 (single isomer, unassigned) [A-OH-AMPPD]
Outgoing: 8853.4

* * *

S/N: recorded values
- SYSTEM: alkaline phosphatase (Bos taurus, UniProt P19111)
- TEST_PROTOCOL: Chemiluminescent signal and signal:background with enhancer polymers (Example XVII)
- Type: biochemical
- ASSAY_CONDITIONS: polymer TMQ; 20 min
When you answer, write just the number.

Answered cases to consult:
{"columns": ["MOLECULE", "S/N"],
 "data": [
  ["COC1(c2cccc(OP(=O)(O)O)c2)OOC12C1CC3CC2CC(O)(C3)C1 (single isomer, unassigned) [A-OH-AMPPD]", 149.6],
  ["COC1(c2cccc(OP(=O)(O)O)c2)OOC12C1CC3CC2CC(Cl)(C3)C1 (stereo not shown)", 226.4],
  ["COC1(c2cccc(OP(=O)(O)O)c2)OOC12C1CC3CC2CC(O)(C3)C1 (single isomer, unassigned) [B-OH-AMPPD]", 70.5]
]}

Now look at this entry.
Incoming: Give me measured S/N, please, for this molecule: COC1(c2cccc(OP(=O)(O)O)c2)OOC12C1CC3CC(C1)CC2C3 (stereo not shown) [AMPPD, reference compound]
Outgoing: 141.1

* * *

- SYSTEM: alkaline phosphatase (Bos taurus)
- TEST_PROTOCOL: Chemiluminescent signal-to-noise levels with enhancers (Example XXIV)
- Type: biochemical
- ASSAY_CONDITIONS: SAPPHIRE 2 1 mg/ml; 5 min
REPORTED_ENDPOINT: chemiluminescent signal-to-noise level
When you answer, write just the number.

Answered cases to consult:
{"columns": ["COMPOUND", "SYSTEM", "RESULT"],
 "data": [
  ["COC1(c2cccc(OP(=O)(O)O)c2)OOC12C1CC3CC2CC(Cl)(C3)C1 (stereo not shown) [Cl-AMPPD]", "alkaline phosphatase (Bos taurus)", 1319],
  ["COC1(c2cccc(OP(=O)(O)O)c2)OOC12C1CC3CC(C1)CC2C3 (stereo not shown) [AMPPD, reference compound]", "alkaline phosphatase (Bos taurus)", 192],
  ["COC1(c2cccc(OP(=O)(O)O)c2)OOC12C1CC3CC2CC(O)(C3)C1 (single isomer, unassigned) [HO-AMPPD]", "alkaline phosphatase (Bos taurus)", 466]
]}

Now look at this entry.
Incoming: Please report the measured chemiluminescent signal-to-noise level for COC1(c2cccc(OP(=O)(O)O)c2)OOC12C1CC3CC2CC(Br)(C3)C1 (stereo not shown) [Br-AMPPD] tested on alkaline phosphatase (Bos taurus).
Outgoing: 688

* * *

- SYSTEM: alkaline phosphatase (Bos taurus, UniProt P19111)
- TEST_PROTOCOL: Chemiluminescent signal and signal:background with enhancer polymers (Example XVII)
- Assay type: biochemical
- ASSAY_CONDITIONS: polymer TEQ; 5 min
S/N: recorded values
When you answer, write just the number.

Answered cases to consult:
{"columns": ["COMPOUND", "RESULT"],
 "data": [
  ["COC1(c2cccc(OP(=O)(O)O)c2)OOC12C1CC3CC2CC(O)(C3)C1 (single isomer, unassigned) [B-OH-AMPPD]", 61.8],
  ["COC1(c2cccc(OP(=O)(O)O)c2)OOC12C1CC3CC2CC(O)(C3)C1 (single isomer, unassigned) [A-OH-AMPPD]", 45.24],
  ["COC1(c2cccc(OP(=O)(O)O)c2)OOC12C1CC3CC2CC(Cl)(C3)C1 (stereo not shown)", 397.0]
]}

Now look at this entry.
Incoming: Give me measured S/N, please, for this compound: COC1(c2cccc(OP(=O)(O)O)c2)OOC12C1CC3CC(C1)CC2C3 (stereo not shown) [AMPPD, reference compound]
Outgoing: 115.3

* * *

S/N: recorded values
- SYSTEM: alkaline phosphatase (Bos taurus)
- TEST_PROTOCOL: Chemiluminescent signal and signal:background with enhancer polymers (Example XVII)
- Type: biochemical
- ASSAY_CONDITIONS: polymer MPB; 5 min

Answered cases to consult:
{"columns": ["COMPOUND", "RESULT"],
 "data": [
  ["COC1(c2cccc(OP(=O)(O)O)c2)OOC12C1CC3CC(C1)CC2C3 (stereo not shown) [AMPPD, reference compound]", 94.3],
  ["COC1(c2cccc(OP(=O)(O)O)c2)OOC12C1CC3CC2CC(Cl)(C3)C1 (stereo not shown) [Cl-AMPPD]", 257.8],
  ["COC1(c2cccc(OP(=O)(O)O)c2)OOC12C1CC3CC2CC(O)(C3)C1 (single isomer, unassigned) [A-OH-AMPPD]", 140.7]
]}

Now look at this entry.
Incoming: Give me measured S/N, please, for this compound: COC1(c2cccc(OP(=O)(O)O)c2)OOC12C1CC3CC2CC(O)(C3)C1 (single isomer, unassigned) [B-OH-AMPPD]
Outgoing: 71.5

* * *

chemiluminescent signal-to-noise level: recorded values
- SYSTEM: alkaline phosphatase (Bos taurus)
- TEST_PROTOCOL: Chemiluminescent signal-to-noise levels with enhancers (Example XXIV)
- Format: biochemical
- ASSAY_CONDITIONS: EMERALD 2 1 mg/ml; 5 min
- Method: The chemiluminescent signal to noise levels were obtained with 2.83×10^-13 M alkaline phosphatase and various R-substituted adamantyl 1,2-dioxetane phosphates in the presence of several enhancers. All measurements were performed in a Berthold LB952T luminometer at room temperature. First, the background chemiluminescence levels (signal in the absence of the enzyme) of each sample (in triplicate) were measured. […] Tubes were inserted into the luminometer and the luminescence intensity was measured. […]
When you answer, write just the number.

Answered cases to consult:
{"columns": ["COMPOUND", "SYSTEM", "chemiluminescent signal-to-noise level"],
 "data": [
  ["COC1(c2cccc(OP(=O)(O)O)c2)OOC12C1CC3CC2CC(Br)(C3)C1 (stereo not shown)", "alkaline phosphatase (Bos taurus)", 315],
  ["COC1(c2cccc(OP(=O)(O)O)c2)OOC12C1CC3CC2CC(Cl)(C3)C1 (stereo not shown)", "alkaline phosphatase (Bos taurus)", 839],
  ["COC1(c2cccc(OP(=O)(O)O)c2)OOC12C1CC3CC(C1)CC2C3 (stereo not shown) [AMPPD, reference compound]", "alkaline phosphatase (Bos taurus)", 113]
]}

Now look at this entry.
Incoming: Give me measured chemiluminescent signal-to-noise level, please, for this compound: COC1(c2cccc(OP(=O)(O)O)c2)OOC12C1CC3CC2CC(O)(C3)C1 (single isomer, unassigned)
Outgoing: 247

* * *

HALF-TIME TO PLATEAU (min.) AL LOW ALK PHOS CONCENTRATION: recorded values
- SYSTEM: alkaline phosphatase (Bos taurus, UniProt P19111)
- TEST_PROTOCOL: Half-time to plateau at low alkaline phosphatase concentration (Example XLI)
- Format: biochemical
- ASSAY_CONDITIONS: 0.4 mM dioxetane at pH 10.0; 31.5° C.; 2.53 × 10^-13 M alkaline phosphatase
Numeric only. Scale: min

Answered cases to consult:
{"columns": ["COMPOUND", "UNIT_SYMBOL", "RESULT"],
 "data": [
  ["COC1(c2cccc(OP(=O)(O)O)c2)OOC12C1CC3CC2CC(I)(C3)C1 (single isomer, unassigned) [ISPD-A]", "min", 0.64],
  ["COC1(c2cccc(OP(=O)(O)O)c2)OOC12C1CC3CC2CC(I)(C3)C1 (single isomer, unassigned) [ISPD-B]", "min", 0.70],
  ["CCCCOC12CC3CC(C1)C1(OOC1(OC)c1cccc(OP(=O)(O)O)c1)C(C3)C2 (stereo not shown)", "min", 0.71],
  ["COC1(c2cccc(OP(=O)(O)O)c2)OOC12C1CC3CC(C1)CC2C3 (stereo not shown) [AMPPD, reference compound]", "min", 1.97]
]}

Incoming: Give me measured HALF-TIME TO PLATEAU (min.) AL LOW ALK PHOS CONCENTRATION, please, for this compound: COC1(c2cccc(OP(=O)(O)O)c2)OOC12C1CC3CC2CC(F)(C3)C1 (stereo not shown)
Outgoing: 0.74

Incoming: Give me measured HALF-TIME TO PLATEAU (min.) AL LOW ALK PHOS CONCENTRATION, please, for this compound: COC1(c2cccc(OP(=O)(O)O)c2)OOC12C1CC3CC2CC(OC(C)C)(C3)C1 (single isomer, unassigned) [i-PrO-AMPPD-B]
Outgoing: 0.68

Incoming: Give me measured HALF-TIME TO PLATEAU (min.) AL LOW ALK PHOS CONCENTRATION, please, for this compound: COC1(c2cccc(OP(=O)(O)O)c2)OOC12C1CC3CC2CC(Cl)(C3)C1 (stereo not shown)
Outgoing: 0.71

Incoming: Give me measured HALF-TIME TO PLATEAU (min.) AL LOW ALK PHOS CONCENTRATION, please, for this compound: COC1(c2cccc(OP(=O)(O)O)c2)OOC12C1CC3CC2CC(OC(C)C)(C3)C1 (single isomer, unassigned) [i-PrO-AMPPD-A]
Outgoing: 0.93

Incoming: Give me measured HALF-TIME TO PLATEAU (min.) AL LOW ALK PHOS CONCENTRATION, please, for this compound: COC1(c2cccc(OP(=O)(O)O)c2)OOC12C1CC3CC2CC(Br)(C3)C1 (stereo not shown)
Outgoing: 0.70

Incoming: Give me measured HALF-TIME TO PLATEAU (min.) AL LOW ALK PHOS CONCENTRATION, please, for this compound: COC12CC3CC(C1)C1(OOC1(OC)c1cccc(OP(=O)(O)O)c1)C(C3)C2 (single isomer, unassigned)
Outgoing: 0.86
